Origin of values: patent US12077503B2

# Test system: ryegrass, Italian (Italian ryegrass, Lolium multiflorum)
# RUN_DESCRIPTION: Test A postemergence
# Type: in vivo
# REPORTED_CONDITIONS: Lolium multiflorum, post-emergence, 240 h, 125 g ai/ha, postemergence; visual injury on 0 to 100 scale (0 no effect, 100 complete control), approx. 10 d; read-out: Ryegrass, Italian plant response rating
MEASURE_NAME: pest or weed control at 125 g/ha

{"MOLECULE": "CN1C[C@H](c2cc(C(F)F)cs2)[C@@H](C(=O)Nc2ccc(F)c(F)c2F)C1=O [Compound 1083]", "MEASURE_NAME": "pest or weed control at 125 g/ha", "OBSERVED": "20%"}
{"MOLECULE": "CN1C[C@H](c2cc(F)cc(F)c2)[C@@H](C(=O)Nc2ncccc2Cl)C1=O [Compound 1097]", "MEASURE_NAME": "pest or weed control at 125 g/ha", "OBSERVED": "0%"}
{"MOLECULE": "Cc1cc([C@H]2CNC(=O)[C@@H]2C(=O)Nc2ccccc2S(C)(=O)=O)ccc1C(F)(F)F [Compound 1041]", "MEASURE_NAME": "pest or weed control at 125 g/ha", "OBSERVED": "0%"}
{"MOLECULE": "CN1C[C@H](c2cc(C(F)F)cs2)[C@@H](C(=O)Nc2ccccc2S(C)(=O)=O)C1=O [Compound 1084]", "MEASURE_NAME": "pest or weed control at 125 g/ha", "OBSERVED": "0%"}
{"MOLECULE": "CC(C)Oc1ccc([C@H]2CNC(=O)[C@@H]2C(=O)Nc2ccc(F)cc2F)cc1 [Compound 1137]", "MEASURE_NAME": "pest or weed control at 125 g/ha", "OBSERVED": "0%"}
{"MOLECULE": "CN1C[C@H](c2cc(C(F)F)cs2)[C@@H](C(=O)Nc2cccc(C#N)c2F)C1=O [Compound 1093]", "MEASURE_NAME": "pest or weed control at 125 g/ha", "OBSERVED": "0%"}
{"MOLECULE": "CN1CC(c2cccc(O)c2)C(C(=O)Nc2cccc(F)c2F)C1=O (centres unmarked) [Compound 1130]", "MEASURE_NAME": "pest or weed control at 125 g/ha", "OBSERVED": "0%"}
{"MOLECULE": "Cc1cc([C@H]2CN(C)C(=O)[C@@H]2C(=O)Nc2ccccc2F)ccc1Br [Compound 1098]", "MEASURE_NAME": "pest or weed control at 125 g/ha", "OBSERVED": "40%"}
